# Study System: SARS-COV-2 RBD-MMH (SARS-COV-2 RBD extracellular domain with C-terminal myc-myc-hexahistidine tag) (SARS-CoV-2)
# Test Method Notes: SPR 37C, mAb captured, pH 7.4 vs pH 6.0
Exercise: for every item that follows, state its recorded t½ Ratio of pH 7.4 to pH 6.0.
# answer = number (no unit)

Exercise: Request the reported t½ Ratio of pH 7.4 to pH 6.0 associated with mAb13458 (antibody, V domains shown) VH: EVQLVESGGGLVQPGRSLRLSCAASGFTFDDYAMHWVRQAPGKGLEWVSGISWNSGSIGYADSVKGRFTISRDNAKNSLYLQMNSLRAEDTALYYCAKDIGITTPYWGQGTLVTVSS VL: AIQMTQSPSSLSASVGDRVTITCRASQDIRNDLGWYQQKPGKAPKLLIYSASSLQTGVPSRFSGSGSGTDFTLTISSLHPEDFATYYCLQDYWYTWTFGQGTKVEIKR
Solution: 1.2

Exercise: Next entry: mAb15166 (antibody, V domains shown) VH: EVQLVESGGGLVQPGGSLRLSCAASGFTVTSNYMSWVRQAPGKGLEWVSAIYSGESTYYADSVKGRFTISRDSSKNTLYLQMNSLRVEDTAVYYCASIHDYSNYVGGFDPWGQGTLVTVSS VL: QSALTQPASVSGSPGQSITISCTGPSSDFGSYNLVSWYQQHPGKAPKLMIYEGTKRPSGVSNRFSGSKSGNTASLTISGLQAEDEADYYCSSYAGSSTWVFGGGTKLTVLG
Solution: 1

Exercise: # iterate: mAb14256 (antibody, V domains shown) VH: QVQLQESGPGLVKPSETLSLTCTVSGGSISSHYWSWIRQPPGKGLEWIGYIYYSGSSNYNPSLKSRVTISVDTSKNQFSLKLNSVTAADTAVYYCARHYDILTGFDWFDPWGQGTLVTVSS VL: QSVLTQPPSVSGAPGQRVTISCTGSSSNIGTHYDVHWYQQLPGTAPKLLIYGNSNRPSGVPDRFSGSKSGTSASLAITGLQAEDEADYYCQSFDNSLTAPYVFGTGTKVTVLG
Solution: 0.8

Exercise: Lookup mAb14282 (antibody, V domains shown) VH: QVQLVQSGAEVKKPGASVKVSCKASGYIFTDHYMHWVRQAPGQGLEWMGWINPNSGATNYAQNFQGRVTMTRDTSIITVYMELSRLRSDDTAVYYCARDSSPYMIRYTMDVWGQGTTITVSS VL: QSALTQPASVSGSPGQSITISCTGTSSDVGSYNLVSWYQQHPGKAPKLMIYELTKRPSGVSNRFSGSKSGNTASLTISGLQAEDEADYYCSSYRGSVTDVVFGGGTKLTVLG
Solution: 0.8

Exercise: Field entry: mAb14286 (antibody, V domains shown) VH: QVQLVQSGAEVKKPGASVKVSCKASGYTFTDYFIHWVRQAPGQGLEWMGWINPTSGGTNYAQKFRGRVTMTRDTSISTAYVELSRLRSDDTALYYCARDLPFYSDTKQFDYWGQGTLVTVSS VL: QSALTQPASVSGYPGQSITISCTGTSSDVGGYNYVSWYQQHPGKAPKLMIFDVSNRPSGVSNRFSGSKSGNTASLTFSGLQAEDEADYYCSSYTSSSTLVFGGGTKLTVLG
Solution: 1

Exercise: Please answer likewise for mAb14284 (antibody, V domains shown) VH: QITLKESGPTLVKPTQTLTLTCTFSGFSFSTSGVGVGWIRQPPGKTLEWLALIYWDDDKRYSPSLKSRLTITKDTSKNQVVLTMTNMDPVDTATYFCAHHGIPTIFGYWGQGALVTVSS VL: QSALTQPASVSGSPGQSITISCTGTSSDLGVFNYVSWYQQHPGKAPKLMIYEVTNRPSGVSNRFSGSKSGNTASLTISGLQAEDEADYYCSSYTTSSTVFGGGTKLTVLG
Solution: 0.9

Exercise: Record: mAb14280 (antibody, V domains shown) VH: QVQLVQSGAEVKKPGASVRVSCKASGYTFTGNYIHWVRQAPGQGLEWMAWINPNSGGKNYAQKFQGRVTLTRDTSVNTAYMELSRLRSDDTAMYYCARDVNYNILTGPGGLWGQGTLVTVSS VL: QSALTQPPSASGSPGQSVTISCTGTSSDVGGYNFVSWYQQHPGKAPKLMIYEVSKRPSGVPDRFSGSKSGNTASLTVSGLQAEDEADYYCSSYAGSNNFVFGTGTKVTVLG
Solution: 0.8

Exercise: Record: mAb14232 (antibody, V domains shown) VH: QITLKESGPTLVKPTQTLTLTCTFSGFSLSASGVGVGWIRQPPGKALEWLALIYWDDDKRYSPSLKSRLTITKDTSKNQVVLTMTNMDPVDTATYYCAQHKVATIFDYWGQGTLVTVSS VL: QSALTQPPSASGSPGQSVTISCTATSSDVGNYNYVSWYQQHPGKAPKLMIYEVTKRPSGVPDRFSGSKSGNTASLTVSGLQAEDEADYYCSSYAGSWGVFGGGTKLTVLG
Solution: 0.4

Exercise: One more binder: mAb15151 (antibody, V domains shown) VH: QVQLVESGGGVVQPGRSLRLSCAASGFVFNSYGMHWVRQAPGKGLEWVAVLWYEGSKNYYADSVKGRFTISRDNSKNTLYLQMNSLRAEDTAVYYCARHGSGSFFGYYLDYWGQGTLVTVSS VL: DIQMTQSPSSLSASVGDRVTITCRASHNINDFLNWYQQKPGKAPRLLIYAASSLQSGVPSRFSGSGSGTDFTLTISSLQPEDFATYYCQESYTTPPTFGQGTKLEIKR
Solution: 0.7

Exercise: Also mAb15159 (antibody, V domains shown) VH: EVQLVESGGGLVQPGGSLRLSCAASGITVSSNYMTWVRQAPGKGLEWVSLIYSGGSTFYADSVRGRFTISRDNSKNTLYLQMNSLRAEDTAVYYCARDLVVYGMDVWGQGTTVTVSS VL: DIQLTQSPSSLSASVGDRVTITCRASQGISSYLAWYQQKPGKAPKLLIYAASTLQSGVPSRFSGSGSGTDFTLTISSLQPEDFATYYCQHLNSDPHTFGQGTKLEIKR ?
Solution: 1.8
